test: basal MM1S mitochondrial membrane potential changes, profiling panel, cell-based, JC-1 fluorescence, 24 h, 100 nL compound (AID 1170); settings: higher = more signal; note: test concentration not given here
OBSERVABLE: z-score
Number only, no unit.

MOLECULE	z-score
[N-]=[N+]=NCc1ccccc1C[C@@]1(C(=O)N2CCCCC2)N=C(c2ccc(OCCCO)cc2)O[C@@H]1c1ccccc1N=[N+]=[N-]	-1.14
[N-]=[N+]=NCc1ccccc1[C@H]1OC(c2ccc(OCCCO)cc2)=N[C@@]1(CCS(=O)(=O)c1ccccc1)C(N)=O	-0.606
NC(=O)NCC#Cc1ccc2c(c1)[C@]1(C(=O)N2)[C@H](c2ccc(O)cc2)N2[C@H](c3ccccc3)[C@H](c3ccccc3)OC(=O)[C@H]2[C@@H]1C(=O)Nc1nc2ccccc2s1	-2.12
O=C1C2C=CC(C(O)c3cc(C(F)(F)F)cc(C(F)(F)F)c3)N(Nc3ccc([N+](=O)[O-])cc3)C2C(=O)N1c1ccccc1 (configuration not stated)	-1.99
CCCCN1CC=CC23O[C@@H]4/C=C\CCC(C)OC(=O)C4[C@H]2C(=O)N(CCCCCCO)[C@@H]3C1=O (some centres not stated)	-0.563

What the record says about CCCCN1CC=CC23O[C@@H]4C=CCOC(=O)[C@@H]4[C@H]2C(=O)N(C(C)CO)[C@@H]3C1=O (some centres not stated) : z-score is -0.0859

What the record says about O=C1OCC=C[C@H]2OC34C=CCN(c5ccc(Cl)cc5)C(=O)[C@H]3N(CCCCCO)C(=O)[C@@H]4[C@@H]12 (some centres not stated) : z-score is 1.35

---

biological target: Albumin (Bos taurus); test: bovine serum albumin binders on microarray, profiling panel, artefact control for SMM control protein annotation, biochemical, small-molecule microarray, Alexa647 label, 635/667 nm fluorescence (AID 1118); conditions: BSA-A647 binding, fluorescence 635 nm, higher = more signal;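 note: score merges 667 nm emission intensity and signal-to-noise per printed compound spot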
Label Y for high-side composite z-score (at or above 0.8) and N for low-side composite z-score (below it).

For orientation, consider the following solved cases.
COMPOUND	ASSIGNED CATEGORY
COc1ccccc1CN1C(=O)c2ccccc2[C@](Cc2ccccc2I)(C(=O)NC(C)C)[C@@H]1c1ccc(CO)cc1	Y
CN(C)CCCNC(=O)[C@@H]1c2ccccc2C(=O)N(Cc2ccc(OC(F)(F)F)cc2)[C@H]1c1ccc(CO)cc1	N
Cc1ccc(S[C@]2(C(=O)NC(C)C)CC(=O)N(Cc3ccccc3C(F)(F)F)[C@@H]2c2ccc(CO)cc2I)cc1	N

[in] Would you say `O=C1O[C@@H](c2ccccc2)[C@@H](c2ccccc2)N2[C@@H](c3ccccc3OCCO)[C@]3(C(=O)Nc4ccccc43)[C@@H](C(=O)NC[C@H](O)c3ccccc3)[C@H]12` shows composite z-score at minimum 0.8?
[out] N

[in] Would you say `CCOC(=O)C[C@H]1[C@H](OC(=O)c2ccc(-c3ccccc3)cc2)[C@@H](NC(=O)C2CCCCC2)c2cc(OCCCO)ccc2N1C(=O)c1ccccc1` shows composite z-score at minimum 0.8?
[out] N

[in] Would you say `CC(C)(C)OC(=O)CC[C@]1(C(=O)N2CCOCC2)N=C(c2ccc(OCCCO)cc2)O[C@H]1c1ccccc1` shows composite z-score at minimum 0.8?
[out] Y

[in] Would you say `C=CC[C@]12N=C(c3ccc(OCCCO)cc3)O[C@H]1c1ccccc1N(C)C2=O` shows composite z-score at minimum 0.8?
[out] N

[in] Would you say `COc1ccc([Si](C)(C)[C@H]2[C@H](CC(=O)N3Cc4ccccc4C[C@H]3CO)O[C@@]3(C(=O)N(Cc4cccc(N5CCCCC5=O)c4)c4ccccc43)[C@@H]2C)cc1` shows composite z-score at minimum 0.8?
[out] N

[in] Would you say `C=C[C@H](COC(C)=O)NS(=O)(=O)c1ccc(Br)cc1` shows composite z-score at minimum 0.8?
[out] N

[in] Would you say `COc1ccc(CCNC(=O)[C@@]2(Sc3ccc(C)cc3)CC(=O)N(Cc3cc(C(F)(F)F)cc(C(F)(F)F)c3)[C@@H]2c2ccc(CO)cc2I)cc1` shows composite z-score at minimum 0.8?
[out] N

[in] Would you say O=C1NC(=O)C2C1C=CC(C(O)c1ccc3c(c1)OCO3)N2Nc1ccccn1 (centres undefined) shows composite z-score at minimum 0.8?
[out] Y

[in] Would you say `COC(=O)[C@]1(CCS(=O)(=O)c2ccccc2)N=C(c2ccc(OCCCO)cc2)O[C@@H]1c1ccccc1CN=[N+]=[N-]` shows composite z-score at minimum 0.8?
[out] N
